assay-overview: Multiple-dose trial, plasma pharmacokinetics
Assay type: in vivo, human
setup-conditions: both sexes, human, plasma, 400 mg oral after breakfast, Day 1
readout-label: MRT last (h)

1) CC(C)=CCC[C@](C)(OC1O[C@H](CO)[C@@H](O)[C@H](O)[C@H]1O)[C@H]1CC[C@]2(C)[C@@H]1[C@H](O)C[C@@H]1[C@@]3(C)CC[C@H](O)C(C)(C)[C@@H]3CC[C@]12C (stereo partly shown) :: 12.5

====

assay-overview: Single-dose trial, plasma pharmacokinetics
Type: in vivo, human
setup-conditions: both sexes, human, plasma; single-dose trial, 200 mg oral, fasting
Experimental: Single-dose pharmacokinetics: The single-dose trial was performed first. […] Drinking before and after medication was prohibited for 2 h, but the amount and time of drinking were not strictly controlled at other times. […] All samples were preserved at −70°C and analyzed with a LC-MS/MS (API 4000 LC-MS/MS, ABI Company, Foster City, CA, USA) at the Institute of Clinical Pharmacology, Central South University (Changsha, China). […]
readout-label: MRT last (h)

1. CC(C)=CCC[C@](C)(OC1O[C@H](CO)[C@@H](O)[C@H](O)[C@H]1O)[C@H]1CC[C@]2(C)[C@@H]1[C@H](O)C[C@@H]1[C@@]3(C)CC[C@H](O)C(C)(C)[C@@H]3CC[C@]12C (stereo partly shown) :: 11.5

====

assay-overview: Single-dose trial, plasma pharmacokinetics
Assay type: in vivo, human
setup-conditions: both sexes, human, plasma; single-dose trial, 100 mg oral, fasting; read-out: Cmax
readout-label: Cmax (ng/mL)

1. CC(C)=CCC[C@](C)(OC1O[C@H](CO)[C@@H](O)[C@H](O)[C@H]1O)[C@H]1CC[C@]2(C)[C@@H]1[C@H](O)C[C@@H]1[C@@]3(C)CC[C@H](O)C(C)(C)[C@@H]3CC[C@]12C (stereo partly shown) [CK] :: 351

====

assay-overview: Single-dose trial, plasma pharmacokinetics
Assay type: in vivo, human
setup-conditions: both sexes, human, plasma; single-dose trial, 600 mg oral, fasting; read-out: Cmax
readout-label: Cmax (ng/mL)

1) CC(C)=CCC[C@](C)(OC1O[C@H](CO)[C@@H](O)[C@H](O)[C@H]1O)[C@H]1CC[C@]2(C)[C@@H]1[C@H](O)C[C@@H]1[C@@]3(C)CC[C@H](O)C(C)(C)[C@@H]3CC[C@]12C (stereo partly shown) :: 1160

====

assay-overview: Multiple-dose trial, plasma pharmacokinetics
Format: in vivo, human
setup-conditions: both sexes, human, plasma, po, 200 mg, 200 mg qd oral after breakfast, Day 15, read-out: t1/2 (converted)
readout-label: half-life

1) CC(C)=CCC[C@](C)(OC1O[C@H](CO)[C@@H](O)[C@H](O)[C@H]1O)[C@H]1CC[C@]2(C)[C@@H]1[C@H](O)C[C@@H]1[C@@]3(C)CC[C@H](O)C(C)(C)[C@@H]3CC[C@]12C (stereo partly shown) :: 37.3 h

====

assay-overview: Multiple-dose trial, plasma pharmacokinetics
Type: in vivo, human
setup-conditions: both sexes, human, plasma, 400 mg qd oral after breakfast, Day 15, steady state, read-out: Cmin
readout-label: concentration at 15 day (ng/mL)

1) CC(C)=CCC[C@](C)(OC1O[C@H](CO)[C@@H](O)[C@H](O)[C@H]1O)[C@H]1CC[C@]2(C)[C@@H]1[C@H](O)C[C@@H]1[C@@]3(C)CC[C@H](O)C(C)(C)[C@@H]3CC[C@]12C (stereo partly shown) :: 1730
